tested on: blood coagulation; assay: PT and aPTT assay in cynomolgus monkeys (Example 46); format: in vivo; settings: Day 17; platelet poor plasma; relative to PBS group
Strand notation (5' to 3'): a small letter for the sugar, then the base; units joined by * are phosphorothioate-linked, units joined directly phosphodiester-linked; [ ] holds rarer units or linkages, { } end groups; capitals alone tell only the bases. e = 2'-O-(2-methoxyethyl) (MOE); [5mC] = 5-methylcytosine; d = 2'-deoxy (DNA)
endpoint: aPTT ratio relative to PBS group

State its aPTT ratio relative to PBS group on blood coagulation: ISIS 449711: 3-8-3, 4-8-4, 2-10-2, 3-10-3 or 4-10-4 MOE microwalk gapmer (Table 46) (antisense eA*e[5mC]*dA*dG*dT*dT*dT*d[5mC]*dT*dG*dG*d[5mC]*eA*eG)
0.90

For each of the substances below, note its aPTT ratio relative to PBS group.
1. ISIS 416858: MOE gapmer, nucleobases 1275 to 1318 of SEQ ID NO: 1 (Table 8) (antisense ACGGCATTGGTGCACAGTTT; MOE gapmer, wing and gap sizes not given here)
2. ISIS 449709: 3-8-3, 4-8-4, 2-10-2, 3-10-3 or 4-10-4 MOE microwalk gapmer (Table 46) (antisense eG*e[5mC]*eA*e[5mC]*dA*dG*dT*dT*dT*d[5mC]*dT*dG*dG*d[5mC]*eA*eG*eG*e[5mC])
3. ISIS 449710: 3-8-3, 4-8-4, 2-10-2, 3-10-3 or 4-10-4 MOE microwalk gapmer (Table 46) (antisense e[5mC]*eA*e[5mC]*dA*dG*dT*dT*dT*d[5mC]*dT*dG*dG*d[5mC]*eA*eG*eG)

1.13
1.03
0.97
